As shown below, each of these compounds has a reported T/C value.
System: L1210 leukemia ip in BDF1 mice, survival T/C
ASSAY SUMMARY: NCI In Vivo Anticancer Drug Screen. Data for tumor model L1210 Leukemia (intraperitoneal) in B6D2F1 (BDF1) mice
CONDITION CONTEXT: endpoint: mean survival time; dose: 200.0 mg/kg/injection; schedule: Q01DX009 (ip); vehicle: Klucel (hydroxypropylcellulose) (HPC); higher = longer survival
Toxic doses and inconclusive results are not listed.

- COMPOUND: "Cc1ccc([N+](=O)[O-])cc1NC(=O)Nc1ccc(C(=O)O)cc1"
  TEST SYSTEM: "L1210 leukemia ip in BDF1 mice, survival T/C"
  T/C: "98 % of control"
- COMPOUND: "O=[N+]([O-])c1ccc(/C=C/c2ccccc2Br)cc1"
  TEST SYSTEM: "L1210 leukemia ip in BDF1 mice, survival T/C"
  T/C: "97 % of control"
- COMPOUND: "O=C(NCSC1=NCCS1)NCSC1=NCCS1"
  TEST SYSTEM: "L1210 leukemia ip in BDF1 mice, survival T/C"
  T/C: "92 % of control"
- COMPOUND: "COc1cc(NS(=O)(=O)c2ccccc2)ccc1C"
  TEST SYSTEM: "L1210 leukemia ip in BDF1 mice, survival T/C"
  T/C: "91 % of control"
- COMPOUND: "CCOC(=O)c1cnc2c(cnn2CC)c1NCC(C)C"
  TEST SYSTEM: "L1210 leukemia ip in BDF1 mice, survival T/C"
  T/C: "103 % of control"
- COMPOUND: "CSc1ccc(NC(=O)C(Cl)Cl)cc1"
  TEST SYSTEM: "L1210 leukemia ip in BDF1 mice, survival T/C"
  T/C: "105 % of control"
- COMPOUND: "COc1ccc(Cl)cc1NS(=O)(=O)c1cccc([N+](=O)[O-])c1"
  TEST SYSTEM: "L1210 leukemia ip in BDF1 mice, survival T/C"
  T/C: "98 % of control"
- COMPOUND: "O=C(O)c1ccccc1C(=O)Nc1ccc([N+](=O)[O-])cc1Cl"
  TEST SYSTEM: "L1210 leukemia ip in BDF1 mice, survival T/C"
  T/C: "89 % of control"
- COMPOUND: "CC(C)=CCNC(=O)NS(=O)(=O)c1ccc(C)cc1"
  TEST SYSTEM: "L1210 leukemia ip in BDF1 mice, survival T/C"
  T/C: "107 % of control"
- COMPOUND: "O=C(Nc1ccccc1Cl)NC1CCCCC1"
  TEST SYSTEM: "L1210 leukemia ip in BDF1 mice, survival T/C"
  T/C: "97 % of control"
- COMPOUND: "CN(CCC#N)c1ccc(C=C(C#N)C#N)cc1"
  TEST SYSTEM: "L1210 leukemia ip in BDF1 mice, survival T/C"
  T/C: "95 % of control"
- COMPOUND: "CN(C)c1ccc(N=Nc2cccc([N+](=O)[O-])c2)cc1"
  TEST SYSTEM: "L1210 leukemia ip in BDF1 mice, survival T/C"
  T/C: "97 % of control"
- COMPOUND: "CN(Cc1ccccc1)C(=O)c1ccc(Cl)cc1"
  TEST SYSTEM: "L1210 leukemia ip in BDF1 mice, survival T/C"
  T/C: "105 % of control"
- COMPOUND: "CCCCCCCCCC(=O)CCCCCC"
  TEST SYSTEM: "L1210 leukemia ip in BDF1 mice, survival T/C"
  T/C: "98 % of control"
- COMPOUND: "CC1(C)C=C(C(Br)c2cccc(Br)c2)C(=O)c2ccccc21 (stereo unspecified)"
  TEST SYSTEM: "L1210 leukemia ip in BDF1 mice, survival T/C"
  T/C: "100 % of control"
- COMPOUND: "Cc1ccc([N+](=O)[O-])cc1NC(=O)Nc1onc(C)c1C"
  TEST SYSTEM: "L1210 leukemia ip in BDF1 mice, survival T/C"
  T/C: "87 % of control"
- COMPOUND: "CCCCCCCCCCCCSC(=O)Nc1ccc([N+](=O)[O-])cc1Cl"
  TEST SYSTEM: "L1210 leukemia ip in BDF1 mice, survival T/C"
  T/C: "107 % of control"
- COMPOUND: "CC(C)(C)c1cc(C#N)cc(C(C)(C)C)c1O"
  TEST SYSTEM: "L1210 leukemia ip in BDF1 mice, survival T/C"
  T/C: "96 % of control"
- COMPOUND: "CCN(c1ccccc1C)S(=O)(=O)c1ccccc1"
  TEST SYSTEM: "L1210 leukemia ip in BDF1 mice, survival T/C"
  T/C: "101 % of control"
- COMPOUND: "COc1ccc(C)cc1NC(=S)NC(=O)c1cccc2ccccc12"
  TEST SYSTEM: "L1210 leukemia ip in BDF1 mice, survival T/C"
  T/C: "88 % of control"
- COMPOUND: "CCOC(=O)N(C)c1ccccc1"
  TEST SYSTEM: "L1210 leukemia ip in BDF1 mice, survival T/C"
  T/C: "105 % of control"
- COMPOUND: "O=C(O)COc1ccccc1OCC(=O)O"
  TEST SYSTEM: "L1210 leukemia ip in BDF1 mice, survival T/C"
  T/C: "100 % of control"
- COMPOUND: "Cc1cc([N+](=O)[O-])c(NCCOC(=O)c2ccc([N+](=O)[O-])cc2)c([N+](=O)[O-])c1"
  TEST SYSTEM: "L1210 leukemia ip in BDF1 mice, survival T/C"
  T/C: "112 % of control"
- COMPOUND: "CC(=O)Nc1c(Cl)cc(I)cc1Cl"
  TEST SYSTEM: "L1210 leukemia ip in BDF1 mice, survival T/C"
  T/C: "103 % of control"
- COMPOUND: "Cc1nn(C)c(Cl)c1[N+](=O)[O-]"
  TEST SYSTEM: "L1210 leukemia ip in BDF1 mice, survival T/C"
  T/C: "97 % of control"
- COMPOUND: "CCOC(=O)Oc1ccc(OC)cc1"
  TEST SYSTEM: "L1210 leukemia ip in BDF1 mice, survival T/C"
  T/C: "96 % of control"

Where these numbers come from: PubChem BioAssay AID248
